system: 883617-216-R-J1-PDC tumor spheroids, viability; experiment: Anticancer human tumor 883617-216-R-J1-PDC patient-derived bladder carcinoma cell line growth inhibition [PI3K]; conditions: compound 10 µM; spheroids with HUVEC and MSC; active means viability on the fitted dose curve at most 10% of control; inactive means the rest;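 further: spheroids exposed to agents for 7 days before the viability read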
Pick from active, inactive when you respond.

How did this test come out for CC(Nc1ncnc2nc[nH]c12)c1cc2cccc(Cl)c2c(=O)n1-c1ccccc1 (stereo not given) ?
inactive

In this assay, the call recorded for CC(C)NCC(C(=O)N1CCN(c2ncnc3c2C(C)CC3O)CC1)c1ccc(Cl)cc1 (stereo not given) was what?
active

Any idea what this test logged for CC1(C)CCC(Nc2ncc(C(F)(F)F)c(-c3c[nH]c4c(P(C)(C)=O)c(C#N)ccc34)n2)CN1 (stereo not given) ?
active

Look up the recorded call for Cn1nccc1Nc1nccc(-c2ccn(C(CO)c3ccc(Cl)c(F)c3)c(=O)c2)n1 (stereo not given) in this test.
inactive

# lookup: test call for C=CC(=O)N1CCN(c2nc(=O)n(-c3c(C)ccnc3C(C)C)c3nc(-c4c(O)cccc4F)c(F)cc23)C(C)C1 (stereo not given)
inactive

Record lookup: outcome of this test for CC(Cn1ccc(-c2ccc(C#N)c(Cl)c2)n1)NC(=O)c1cc(C(C)O)[nH]n1 (stereo not given) ?
inactive

Called result for `CCCS(=O)(=O)Nc1ccc(F)c(C(=O)c2c[nH]c3ncc(-c4ccc(Cl)cc4)cc23)c1F`
active

Query: recorded result category for C#Cc1c(F)ccc2cc(O)cc(-c3ncc4c(N5CC6CCC(C5)N6)nc(OCC56CCCN5CC(F)C6)nc4c3F)c12 (stereo not given) in this test
inactive

How did this test come out for `C[C@@H](NC(=O)c1ncnc(N)c1Cl)c1ncc(C(=O)Nc2cc(C(F)(F)F)c(Cl)cn2)s1` ?
inactive
